biological target: Human immunodeficiency virus type 1 integrase (Human immunodeficiency virus 1); experiment: Inhibition of HIV1 integrase-mediated single strand tansfer of viral DNA after 30 mins by PAGE
quantityKind: IC50 (µM)

O=C(C1=C(O)C(=O)N(c2ccccc2)C1c1ccc([N+](=O)[O-])cc1)c1ccccc1 (stereo not drawn)	44
COc1ccc(CCN2C(=O)C(O)=C(C(=O)c3ccccc3)C2c2ccccc2)cc1 (stereo not drawn)	45

[1] COc1ccc(CCN2C(=O)C(O)=C(C(=O)c3ccccc3)C2c2ccc(O)cc2)cc1 (stereo not drawn)
[2] COc1ccc(CCN2C(=O)C(O)=C(C(=O)c3ccccn3)C2c2cccc(Cl)c2)cc1 (stereo not drawn)
### Prompt I would appreciate it if you could say which entry, 1 or 2 , has the lower IC50 value. Please indicate the selected item by its label.
### Response 2
(2: 40 µM, 1: 100 µM)

====

assay: Selectivity index, ratio of CC50 against human TZM-bl cells to EC50 for inhibition of HIV1 integrase activity in TZM-bl cells infected with HIV1 pNL4.3; assay type: toxicity, cell-based; conditions: read-out: Ratio CC50/EC50
quantityKind: selectivity ratio
Just the number, please, no unit after it.

Value of measured selectivity ratio for the entry COc1ccc(CCN2C(=O)C(O)=C(C(=O)c3ccccn3)C2c2cccc(Cl)c2)cc1 (stereo unspecified) : 83.7

====

biological target: Human immunodeficiency virus type 1 integrase (Human immunodeficiency virus 1, UniProt Q7ZJM1); assay: Inhibition of HIV1 integrase-mediated 3' processing of viral DNA after 30 mins by PAGE
Sequence (Q7ZJM1 whole entry): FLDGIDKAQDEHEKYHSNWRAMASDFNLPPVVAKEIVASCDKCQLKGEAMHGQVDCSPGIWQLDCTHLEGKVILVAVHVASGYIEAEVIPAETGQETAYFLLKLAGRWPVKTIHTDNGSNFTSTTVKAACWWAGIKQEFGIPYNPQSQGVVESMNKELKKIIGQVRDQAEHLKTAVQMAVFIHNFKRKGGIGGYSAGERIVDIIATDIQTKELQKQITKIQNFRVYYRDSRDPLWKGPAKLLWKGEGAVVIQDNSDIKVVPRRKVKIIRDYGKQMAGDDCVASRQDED
quantityKind: IC50

Per the record, CN1C(=O)C(O)=C(C(=O)c2ccccc2)C1c1cccc(Cl)c1 (stereo not drawn) has IC50 of > 100 µM

The reported value for CN1C(=O)C(O)=C(C(=O)c2ccccn2)C1c1cccc(Cl)c1 (stereo not drawn) in terms of IC50 is > 100 µM

IC50 in this record for COc1ccc(CCN2C(=O)C(O)=C(C(=O)c3ccccc3)C2c2ccccc2)cc1 (stereo not drawn) : 80 µM

====

Property: CC50; scope: individual compounds
experiment: Cytotoxicity against human TZM-bl cells infected with HIV1 pNL4.3; format: cell-based
Your answer should be a plain number; it is taken to be in µM.

Field: example entries. Status: answers known.
COc1ccc(CCN2C(=O)C(O)=C(C(=O)c3ccccc3)C2c2ccc(O)cc2)cc1 (centres undefined)	459
COc1ccc(CCN2C(=O)C(O)=C(C(=O)c3ccccn3)C2c2cccc(Cl)c2)cc1 (centres undefined)	26.6
COc1ccc(CCN2C(=O)C(O)=C(C(=O)c3ccccc3)C2c2ccccc2)cc1 (centres undefined)	830

# next compound below
Per the record, O=C(C1=C(O)C(=O)N(c2ccccc2)C1c1ccc([N+](=O)[O-])cc1)c1ccccc1 (centres undefined) has CC50 of 790

====

molecular target: Human immunodeficiency virus type 1 integrase (Human immunodeficiency virus 1); experiment: Inhibition of HIV1 integrase-mediated 3' processing of viral DNA after 30 mins by PAGE
pIC50: −log10 of the molar value.
quantityKind: pIC50

O=C(C1=C(O)C(=O)N(c2ccccc2)C1c1ccc([N+](=O)[O-])cc1)c1ccccc1 (stereo not given)	4.05
COc1ccc(CCN2C(=O)C(O)=C(C(=O)c3ccccn3)C2c2cccc(Cl)c2)cc1 (stereo not given)	4.11

====

target: Human immunodeficiency virus type 1 integrase (Human immunodeficiency virus 1); test: Inhibition of HIV1 integrase-mediated 3' processing of viral DNA after 30 mins by PAGE
quantityKind: IC50

Worked set:
CN1C(=O)C(O)=C(C(=O)c2ccccc2)C1c1ccc([N+](=O)[O-])cc1 (stereo not drawn)	> 100 µM
CC(C)CN1C(=O)C(O)=C(C(=O)c2ccccc2)C1c1ccccc1 (stereo not drawn)	> 100 µM

The compound identified as COc1ccc(CCN2C(=O)C(O)=C(C(=O)c3ccccc3)C2c2ccc(O)cc2)cc1 (stereo not drawn) registered its IC50 at > 100 µM

Hey, just so you know, these numbers are from ChEMBL document CHEMBL1909641.
